These measurements were taken from the supplement of paper PMC6555819.

- Test system: THRa homodimer (NR concentration 90 nM)
- Protocol Summary: PBM binding z-score (relative to random genomic background probes); higher = stronger binding; sequences stand for … in GC…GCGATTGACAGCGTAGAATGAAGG
Readout Kind: PBM binding z-score
Format: numeric value only, no unit, no commentary.

Asked: Fill in: PBM binding z-score of "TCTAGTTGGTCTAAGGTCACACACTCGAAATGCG" is ___
Given back: 5.66

Asked: # input sequence: "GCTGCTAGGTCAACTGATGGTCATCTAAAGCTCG" ; wanted: its PBM binding z-score
Given back: 1.12

Asked: Which PBM binding z-score is reported for this sequence? "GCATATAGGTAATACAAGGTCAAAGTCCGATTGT"
Given back: 3.05

Asked: # get_value(readout='PBM binding z-score', item= "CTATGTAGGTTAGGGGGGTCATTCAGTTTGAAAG" )
Given back: 3.25

Asked: Return reported PBM binding z-score; argument: "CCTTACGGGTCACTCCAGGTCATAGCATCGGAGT"
Given back: 3.03

Asked: May I ask what PBM binding z-score has been recorded for "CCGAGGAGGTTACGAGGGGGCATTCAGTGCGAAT" ?
Given back: 0.537

Asked: Endpoint output: PBM binding z-score of "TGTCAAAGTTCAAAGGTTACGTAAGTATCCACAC" . Value?
Given back: 0.193

Asked: Item "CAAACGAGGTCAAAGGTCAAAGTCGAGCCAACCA" has what recorded PBM binding z-score?
Given back: 3.26

Asked: # lookup: PBM binding z-score of "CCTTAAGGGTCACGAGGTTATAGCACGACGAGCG"
Given back: 1.24

Asked: Field request: PBM binding z-score | item: "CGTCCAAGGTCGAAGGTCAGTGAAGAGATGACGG"
Given back: 0.66

Asked: So what's the measured PBM binding z-score for this one? "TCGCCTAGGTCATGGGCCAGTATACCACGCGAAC"
Given back: 1.58

Asked: Name the recorded PBM binding z-score for "CCGACTGGGGCAAGGTCACCATAACGCACAGCCA" .
Given back: 2.7

###

- Tested on: RARg:RXRa (NR concentration 270 nM, RXRa partner concentration 90 nM)
- Protocol Summary: PBM binding z-score (relative to random genomic background probes); higher = stronger binding; sequences stand for … in GC…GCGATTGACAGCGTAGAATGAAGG
Rule: PBM binding z-score of 6 or more gives condition met; anything lower gives condition not met.

Asked: Test whether the sequence "CAAACTAGGTCACTAAAGGTCAAAGTCGAATGAC" records PBM binding z-score of 6 or higher.
Given back: condition met

Asked: Would you say "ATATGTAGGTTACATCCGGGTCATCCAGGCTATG" shows PBM binding z-score at minimum 6?
Given back: condition not met

Asked: Could you please find out whether "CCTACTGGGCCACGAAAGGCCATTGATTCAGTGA" has PBM binding z-score that meets 6 or exceeds it?
Given back: condition not met

Asked: Decide: PBM binding z-score of "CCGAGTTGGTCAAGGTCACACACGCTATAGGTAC" >= 6?
Given back: condition not met

Asked: Entry "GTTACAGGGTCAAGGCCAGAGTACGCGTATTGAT" : is its PBM binding z-score no less than 6?
Given back: condition not met

Asked: # bool: PBM binding z-score of "GCTGCTAGGTCAACTGATGGTCAACTAAAGCTCG" >= 6
Given back: condition not met

###

- Test system: RARg:RXRa (NR concentration 270 nM, RXRa partner concentration 90 nM)
- Protocol Summary: PBM binding z-score (relative to random genomic background probes); higher = stronger binding; sequences stand for … in GC…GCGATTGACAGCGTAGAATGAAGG
Entries are sorted into classes by PBM binding z-score as follows: one = under 4, two = from 4 up to 6, three = 6 and over

Asked: Band of "TAGCCTAAGTCATGCGGGCCAGTATAGTGTCGGC" ?
Given back: one

Asked: Lab note: which band did "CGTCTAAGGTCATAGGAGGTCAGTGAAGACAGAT" land in?
Given back: three

Asked: Which bin, given its PBM binding z-score, does "CGTCCAAGGTCATAGAGGTCAGTGAATGCCGAGT" occupy?
Given back: three

Asked: Pick a category. Item: "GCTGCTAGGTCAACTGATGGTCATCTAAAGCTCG"
Given back: two

Asked: Using the reported PBM binding z-score, which band applies to "ATCGAAAGGTCGTGAGGTAAGTATACAGAAAGGC" ?
Given back: two

Asked: Assign a bin to "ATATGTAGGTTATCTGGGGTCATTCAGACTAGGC"
Given back: two

Asked: Please classify: "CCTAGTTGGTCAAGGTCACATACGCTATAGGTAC"
Given back: two

Asked: Band for "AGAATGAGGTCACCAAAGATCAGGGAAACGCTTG" ?
Given back: three

Asked: Band of "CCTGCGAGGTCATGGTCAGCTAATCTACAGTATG" ?
Given back: three

Asked: Textbook exercise: identify the category of the sequence given here, "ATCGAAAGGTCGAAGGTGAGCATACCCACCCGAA" , according to its measured value.
Given back: two

Asked: Tag the class for "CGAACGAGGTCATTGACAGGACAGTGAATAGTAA"
Given back: three

Asked: Just checking, what class would you give "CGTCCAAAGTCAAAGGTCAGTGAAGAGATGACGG" here?
Given back: two

Asked: Field: class (PBM binding z-score) — entry: "AGTCAAAGTTCAGGACGAGGTAACGTTAAGCACG"
Given back: two

Asked: // return the class label for "AGTCAAAGTGCATCTAGGTAACGTAAGATATGCT"
Given back: one

Asked: Into which bin does this sequence go? "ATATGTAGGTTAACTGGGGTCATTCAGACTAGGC"
Given back: two

Asked: GET /class?item= "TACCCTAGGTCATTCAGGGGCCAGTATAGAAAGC"
Given back: three

Asked: Band of "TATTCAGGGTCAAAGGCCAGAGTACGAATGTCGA" ?
Given back: three

Asked: # bin label for "ATATGTAGGTTAGCTGGGGTCATTCACACTAGGC"
Given back: two

Asked: Classify this sequence: "AATACAGGGTCATCTTAGGCCAGAGTACGCACAG"
Given back: two

Asked: State the class of the sequence shown: "TAGCCTAGGTCATTCAGGGGCCACTATAGAAAGC"
Given back: three

Asked: Class (by measured PBM binding z-score) for "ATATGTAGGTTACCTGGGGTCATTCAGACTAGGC"
Given back: two

Asked: Sort "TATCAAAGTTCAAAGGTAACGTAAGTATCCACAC" into one of the categories.
Given back: three

Asked: Classify this sequence: "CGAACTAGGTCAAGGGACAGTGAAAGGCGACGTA"
Given back: one

Asked: Which class does "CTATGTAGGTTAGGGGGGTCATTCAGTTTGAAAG" fall in?
Given back: two

Asked: Band of "CCTCGGAGGACAGAAGGTCAAAGCTGTCCGCTTT" ?
Given back: two

Asked: Assign a bin to "AGTCAAAGTTCAGGACGACGTAACGTAAAGCACG"
Given back: one

Asked: Which class holds "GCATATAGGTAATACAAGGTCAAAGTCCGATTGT" ?
Given back: one

Asked: Lab note: which band did "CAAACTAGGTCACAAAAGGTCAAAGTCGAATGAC" land in?
Given back: three

Asked: Class? Entry: "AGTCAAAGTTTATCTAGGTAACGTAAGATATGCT"
Given back: one

Asked: Lab note: which band did "TCTCGGAGGACACTAAAGGTCAGAGCTCGACATC" land in?
Given back: two

Asked: Which class does "CACACTAGGTCACAGAGGTCAAAGTCCGTGCGTA" fall in?
Given back: three

Asked: Which PBM binding z-score category applies to "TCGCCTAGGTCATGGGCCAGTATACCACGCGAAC" here?
Given back: two

Asked: Assign a bin to "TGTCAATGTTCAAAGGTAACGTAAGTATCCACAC"
Given back: one

Asked: Which category does the recorded PBM binding z-score put "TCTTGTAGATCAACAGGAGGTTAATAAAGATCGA" in?
Given back: one

Asked: Field: class (PBM binding z-score) — entry: "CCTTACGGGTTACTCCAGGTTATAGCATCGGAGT"
Given back: one

Asked: Could you tell me which band "ATATGTAGGTCAAGGGTCATTCAGGTTGGTTCGC" belongs to?
Given back: three

Asked: Band of "CCGAGTAGGTTACGAGGGGTCATTCAGTGCGAAT" ?
Given back: two

Asked: Band for the recorded PBM binding z-score of "ACTTACGGGTCAACGAGGTCATAGCACGCGTATA" ?
Given back: three

Asked: Please report the category associated with "CAAACTAGGTCACCGAAAGGTCAAAGTCCGCATG" , nothing else.
Given back: three

Asked: Where would "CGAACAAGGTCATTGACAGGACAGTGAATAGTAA" land among the classes by reported PBM binding z-score?
Given back: three

Asked: Which band does "CAAACTAGGTCACAGTGGTCAAAGTCCGTGCGTA" fall in?
Given back: two

Asked: Note: place this sequence into its band. Item: "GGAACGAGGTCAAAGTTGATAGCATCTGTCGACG"
Given back: three

Asked: Please indicate the class for "CCTACTGGGCCATTCAGAGGTCAATGATCATATG" based on its PBM binding z-score.
Given back: two

Asked: Form: Item = "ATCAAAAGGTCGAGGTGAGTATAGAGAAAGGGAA" ; Class = ?
Given back: two

Asked: Field: class (PBM binding z-score) — entry: "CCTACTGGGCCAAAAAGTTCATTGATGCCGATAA"
Given back: one

Asked: Category lookup for the sequence "GATACAGGGTCAGCTACAGGCCAGAGTATGGAAA"
Given back: two
